Just for reference, patent US10618964B2 is where these values come from.

Target: soluble IL-6R in cynomolgous plasma (cynomolgus monkey, UniProt A0A2K5WN54)
Assay: ELISA 2, periplasmic extract; competitor IL-6; cyno plasma
Excerpt: In this ELISA, plasma was used as a source of native soluble IL-6R. By this assay, we aimed to confirm the alphascreen results and to get a view on the cross-reactivity of the clones towards cynomolgous IL-6R. […] Subsequently, plasma soluble IL-6R was captured on a B-N12 coated plate and bound IL-6 was detected using anti-IL-6 antibody BAF206 and streptavidin-HRP (ELISA 1 and ELISA 2). […]
attribute_measured: OD450 ratio sample/blank

- IL6RPMP101G1 (VHH) VHH: EVQLVESGGGLVQPGGSLRLSCAASGGTLDYYAIGWFRQAPGKEREGVSCISSSDGSTYYASSVKGRFTVSRDKAKNTVYLQMNSLKPEDTAVYYCAFVFTTAQAMGVPNNPYEYDFWGQGTQVTVSS: 0.0937
- IL6RPMP108D2 (VHH) VHH: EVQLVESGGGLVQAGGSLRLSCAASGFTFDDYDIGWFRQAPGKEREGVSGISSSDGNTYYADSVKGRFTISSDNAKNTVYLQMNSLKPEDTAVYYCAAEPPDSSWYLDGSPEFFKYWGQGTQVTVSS: 0.345
